molecular target: Ube2D1 (human, UniProt P51668 1-147); experiment: ITC
Sequence (P51668 whole entry): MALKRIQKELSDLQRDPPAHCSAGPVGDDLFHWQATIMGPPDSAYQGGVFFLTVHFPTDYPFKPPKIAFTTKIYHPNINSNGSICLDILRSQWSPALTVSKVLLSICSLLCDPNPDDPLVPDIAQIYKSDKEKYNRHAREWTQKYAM

{"BINDER": "UHRF1-UBL W2V (domain or fragment, human, UniProt Q96T88 1-76, looked up) MVIQVRTMDGRQTHTVDSLSRLTKVEELRRKIQELFHVEPGLQRLFYRGKQMEDGHTLFDYEVRLNDTIQLLVRQS", "binding result": "binds"}
{"BINDER": "UHRF1-UBL L65A (domain or fragment, human, UniProt Q96T88 1-76, looked up) MWIQVRTMDGRQTHTVDSLSRLTKVEELRRKIQELFHVEPGLQRLFYRGKQMEDGHTLFDYEVRANDTIQLLVRQS", "binding result": "binds"}
{"BINDER": "UHRF1-UBL F59V (domain or fragment, human, UniProt Q96T88 1-76, looked up) MWIQVRTMDGRQTHTVDSLSRLTKVEELRRKIQELFHVEPGLQRLFYRGKQMEDGHTLVDYEVRLNDTIQLLVRQS", "binding result": "binds"}
{"BINDER": "UHRF1-UBL K50R (domain or fragment, human, UniProt Q96T88 1-76, looked up) MWIQVRTMDGRQTHTVDSLSRLTKVEELRRKIQELFHVEPGLQRLFYRGRQMEDGHTLFDYEVRLNDTIQLLVRQS", "binding result": "binds"}
